Sourced from patent US9902725B2

# study target: RORγt ligand-binding domain (RORγt-LBD) (Homo sapiens, UniProt P51449)
# Construct: 20 nM recombinantly expressed RORγ-LBD fused to GST
# Sequence (P51449 269-508 limits assumed): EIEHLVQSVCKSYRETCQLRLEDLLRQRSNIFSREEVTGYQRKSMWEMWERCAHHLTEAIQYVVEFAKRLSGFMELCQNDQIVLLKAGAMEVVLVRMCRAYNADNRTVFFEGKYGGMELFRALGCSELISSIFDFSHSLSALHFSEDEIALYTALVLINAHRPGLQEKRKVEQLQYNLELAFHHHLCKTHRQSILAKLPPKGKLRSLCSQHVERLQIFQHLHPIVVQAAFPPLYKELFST
# protocol: Time-resolved FRET (TR-FRET) RORγt coactivator assay
# particulars: GST-RORγ-LBD, biotinylated RIP140 peptide, coactivator displacement
# Excerpt: Time-resolved FRET (TR-FRET) RORγt coactivator assay was used to identify RORγ modulator compounds with ligand-dependent coactivator displacement. […] For reduction of background from compound fluorescence, TR-FRET method makes use of generic fluorophore labels and time resolved detection. […]
pIC50: −log10 of the molar value.
What pIC50 was measured for each of the following?

Below are some compounds; for each one, tell me its pIC50.
1. COC(=O)Cc1c[nH]c2ccc(CC(=O)NC(c3ccccc3)c3ccccc3N3CCCCCC3)cc12 (stereo not shown)
2. O=C(O)Cc1c[nH]c2ccc(NC(=O)NC(c3ccccc3)c3ccccc3N3CCCCC3)cc12 (stereo not shown)
3. CON(C)C(=O)Cc1c[nH]c2ccc(CC(=O)NC(c3ccccc3)c3ccccc3N3CCCCC3)cc12 (stereo not shown)
4. Cc1ccc(C(NC(=O)Cc2ccc3[nH]cc(CCC(=O)O)c3c2)c2ccccc2)c(N)c1 (stereo not shown)

Solution:
> 6.00
5.00 to 6.00
> 6.00
5.00 to 6.00

Below are some compounds; for each one, tell me its pIC50.
1. O=C(O)CCc1c[nH]c2ccc(CC(=O)NC(c3ccccc3)c3ccccc3N3CCCC(O)C3)cc12 (stereo not shown)
2. CC(C)Oc1ccc(C(NC(=O)Cc2ccc3[nH]cc(CCC(=O)O)c3c2)c2ccccc2)c(N2CCCCC2)c1 (stereo not shown)
3. CC(C)(C)OC(=O)CCc1c[nH]c2ccc(CC(=O)NC(c3ccccc3)c3ccc(C(F)(F)F)cc3N3CCCC3)cc12 (stereo not shown)

Solution:
1: 5.00 to 6.00; 2: > 6.00; 3: 5.00 to 6.00
